- assay.procedure: Quantitative High-Throughput drug screen in 47 multiple myeloma cell lines against the NCATS MIPE library collection: H1112_PLB cell viability assay (AID 1918967; note: nearly all actives have a fitted effect of over 30% in size)
- condition.label: H1112 myeloma cells viability, ATP luminescence, 48 h; series mostly up to 45.8 µM
Results filed as inconclusive are left out. Active and inactive are the calls of the source. Calls come from the whole dose curve; as a rule, active = well fitted cell-killing curve with a large enough effect; inconclusive = small, poorly fitted or top-dose-only effect, or effect the other way; inactive = no such curve, though single readings can be large or run the other way.
Answer with one of the outcomes active, inactive

Worked examples, 5 molecules total:
molecule | class.name
CO[C@H]1C=CO[C@@]2(C)Oc3c(C)c(O)c4c(O)c(c(C=NN5CCN(C)CC5)c(O)c4c3C2=O)NC(=O)C(C)=CC=C[C@H](C)[C@H](O)[C@@H](C)[C@@H](O)[C@@H](C)[C@H](OC(C)=O)[C@H]1C | inactive
N#CC1(c2cccc(C(=O)Nc3cc(Oc4ccc5nc(NC(=O)C6CC6)sc5n4)ccc3F)c2Cl)CC1 | active
Cc1ccc(S(=O)(=O)OCC(=O)Nc2ccc(C(=O)O)c(O)c2)cc1 | active
CCNC(=O)[C@H]1O[C@@H](n2cnc3c(N)nc(NCCc4ccc(CCC(=O)O)cc4)nc32)[C@H](O)[C@H]1O | inactive
CNC1[C@H](O)C(O[C@@H]2C(O)C(O[C@H]3O[C@H]([C@@H](C)NC)CC[C@H]3N)[C@@H](N)C[C@H]2N)OC[C@]1(C)O (stereo partly specified) | inactive

For the next question, use this molecule.
Exam item: Dear all, I need the recorded test outcome for CC(=O)O[C@]1(C(C)=O)CC[C@H]2[C@@H]3C=C(Cl)C4=CC(=O)[C@@H]5C[C@H]5[C@]4(C)[C@@H]3CC[C@@]21C , thank you.
Marked response: active

###

- assayed.system: Luciferin 4-monooxygenase (Photinus pyralis)
- assay.procedure: Biochemical firefly luciferase enzyme assay for NPC (AID 624030);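 note: purified P. pyralis luciferase at 10 nM with luciferin and ATP substrate; nearly all actives have a fitted effect of over 70% in size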
- condition.label: purified P. pyralis luciferase, luminescence, 5 min; series mostly up to 58.6 µM
Results filed as inconclusive are left out. Calls of active or inactive are those of the source. Calls come from the whole dose curve; as a rule, active = well fitted inhibition curve with a large enough effect; inconclusive = small, poorly fitted or top-dose-only effect; inactive = flat fitted curve, though single readings scatter.
measured.parameter: outcome

compound | result.value
CCC(=O)OCC(=O)[C@@]1(OC(=O)CC)[C@@H](C)C[C@@H]2[C@H]3CCC4=CC(=O)C=C[C@]4(C)[C@@]3(F)[C@@H](O)C[C@@]21C | inactive
CCCCCCCCCCCCCCCC(=O)O[C@H]1[C@@H](O)[C@@H](O)[C@@H]([C@H](NC(=O)[C@@H]2C[C@@H](CCC)CN2C)[C@H](C)Cl)O[C@@H]1SC | inactive
O=C(CCCN1CCN(c2ccc(F)cc2)CC1)NC1c2ccccc2CSc2ccccc21 (stereo not drawn) | inactive

###

- assay.procedure: qHTS of pediatric cancer cell lines to identify multiple opportunities for drug repurposing: Primary screen for A673 cells (AID 1347092); note: nearly all actives have a fitted effect of over 45% in size
- condition.label: A673 Ewing sarcoma viability, CellTiter-Glo ATP luminescence, 48 h; series mostly up to 46 µM
Inconclusive results are not listed. Calls of active or inactive are those of the source. Calls come from the whole dose curve; as a rule, active = well fitted cell-killing curve with a large enough effect; inconclusive = small, poorly fitted or top-dose-only effect; inactive = no such curve, though single readings can be large or run the other way.
Answer with one of the outcomes t = active, f = inactive

Worked examples, 3 compounds total:
compound | class.name
Cc1ccccc1-n1c(Cn2nc(-c3cccc(O)c3)c3c(N)ncnc32)nc2cccc(C)c2c1=O | t
CCC(=O)OCC(=O)[C@@]1(OC(=O)CC)[C@@H](C)C[C@@H]2[C@H]3CCC4=CC(=O)C=C[C@]4(C)[C@@]3(F)[C@@H](O)C[C@@]21C | t
CCNC(=O)CCCC=CC[C@@H]1[C@H](C=CC(O)CCc2ccccc2)[C@@H](O)C[C@@H]1O (some centres undefined) | f

For the next question, use this compound.
Exam item: Dear all, I need the recorded test outcome for Cn1c(=O)c(Oc2ccc(F)cc2F)cc2cnc(NC3CCOCC3)nc21 , thank you.
Marked response: f
